# system tested: interaction between GMPPNP-bound recombinant K-Ras4B G12C mutant protein and cRAF RAS-binding domain (cRAF-RBD) (Homo sapiens, UniProt P01116, G12C)
# Construct: His-tag (N)
# Sequence (P01116 with tags, fused parts or gaps isoform P01116-2 G12C): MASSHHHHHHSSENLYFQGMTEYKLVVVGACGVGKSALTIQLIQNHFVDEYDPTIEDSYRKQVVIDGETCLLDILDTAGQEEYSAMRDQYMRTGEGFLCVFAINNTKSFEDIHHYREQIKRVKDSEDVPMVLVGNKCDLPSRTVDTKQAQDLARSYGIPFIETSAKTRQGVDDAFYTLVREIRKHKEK
# assay name: Inhibitory activity on interaction between KRAS G12C and cRAF (Alpha technology)
# test conditions: IC50, GMPPNP-bound KRAS G12C incubated with compound 25° C. 1 hour; Table 2
pIC50: −log10 of the molar value.
// reported pIC50 for each item listed

Here is how some compounds turned out for pIC50.
CO[C@H]1CC[C@H](NC/C=C/C(=O)Nc2c(F)cc(C(=O)c3cn4c5c(cccc35)-c3c(cc(N5CCCC5=O)cc3C(F)(F)F)OCC4)cc2F)CC1 (single isomer, unassigned) [Example 5-2] : < 5.17
CO[C@H]1CC[C@H](NC/C=C/C(=O)Nc2c(F)cc(C(=O)c3cn4c5c(cccc35)-c3c(Cl)cccc3OCCC4)cc2F)CC1 (single isomer, unassigned) [Example 4-1] : < 5.17

Ask | State the recorded pIC50 for this entry: `CO[C@H]1CC[C@H](NC/C=C/C(=O)Nc2c(F)cc(C(=O)c3c(C)n4c5c(cccc35)-c3c(C(F)(F)F)cc5c(nc(C)n5C)c3OCC4)cc2F)CC1`
Reply | 7.41
